Measured TGI, listed per entry.
- System: NCI-H460 lung
- protocolDetails: NCI tumour cell line growth inhibition, 48 h

Here's what some known entries look like.
| compound | TGI |
| --- | --- |
| Cc1cc(=O)c2cc(N=Cc3ccc([N+](=O)[O-])o3)ccc2o1 | > 100 µM |
| Nc1nc2c(c3ncccc13)C(c1ccc(Cl)c(Cl)c1)Cc1ncccc1-2 (stereo not given) | 13 µM |
| Cc1ccc(S(=O)(=O)NC(=O)NCCC(=O)O)cc1 | > 100 µM |
| CCOC(=O)/C(C#N)=C/c1ccc(CO)o1 | > 100 µM |
| COc1ccc(C(O)c2cc3c(N)c(C(=O)Nc4cccc(Cl)c4C)sc3nc2C)cc1 (stereo not given) | 1.73 µM |
| Cc1cc(=O)n2nc(CSc3nnc(N)s3)sc2n1 | > 100 µM |
| COc1ccc(/C=C(\C(=C/c2ccc(OC)cc2)[N+](=O)[O-])[N+](=O)[O-])cc1 | 12.2 µM |
| C=C1C(=O)O[C@H]2[C@H]1CC/C(CNS(=O)(=O)c1ccc3ccccc3c1)=C\CC[C@@]1(C)O[C@@H]21 | 24.3 µM |

Dear colleague, I am looking for the recorded TGI of the following compound: CC1CCc2c(sc3ncnc(N/N=C/c4ccc(Cl)c(Cl)c4)c23)C1 (stereo not given)
42.2 µM

Query (compound): O=c1[nH]cnc2c1nnn2C1OC(CO)C(O)C1O (stereo not given) ; field requested: TGI
> 100 µM

Please give the measured TGI for this compound: "c1cc(C[S+]2CCCC2)ccc1C[S+]1CCCC1"
> 100 µM

Tell me the measured TGI of O=C(OCCN1CCCCC1)C(c1ccccc1)C1(O)CCSCC1 (stereo not given) , please.
> 100 µM
